# protocol: Cytotoxicity
# Type: cell-based
# condition: hamster, BHK21 cells (kidney)
measurementName: CC50

Give the reported CC50 for this compound. COCCCOc1cc2c(nc1OC)-c1cc(=O)c(C(=O)O)cn1[C@H](C(C)C)C2 [AB-452] > 30 µM

----------
# protocol: Cytotoxicity
# Type: cell-based
# condition: human, CEM-SS cells (T lymphoblast)
# Description: TABLE 3 Cytotoxicity of AB-452 against cells derived from various tissues | column: AB-452 CC50 (μM)
measurementName: CC50

Give the reported CC50 for this molecule. COCCCOc1cc2c(nc1OC)-c1cc(=O)c(C(=O)O)cn1[C@H](C(C)C)C2 [AB-452] > 30 µM

----------
# Test system: HCMV
# protocol: Antiviral selectivity panel, CPE in MRC-5 cells
# Assay type: cell-based, human cytomegalovirus
# condition: Human betaherpesvirus 5, MRC5; MRC-5, CPE
pEC50: −log10 of the molar value.
measurementName: pEC50

Report measured pEC50 on HCMV; entry: COCCCOc1cc2c(nc1OC)-c1cc(=O)c(C(=O)O)cn1[C@H](C(C)C)C2 [AB-452] < 4.52

----------
# Tested on: HBV
# protocol: Antiviral assay in HBV-infected primary human hepatocytes (PHH)
# Format: cell-based
# condition: Hepatitis B virus, Hepatocyte, read-out: HBsAg EC50
measurementName: pEC50
Give bare numbers, as −log10 of the molar value.

Give the reported pEC50 for this compound. "COCCCOc1cc2c(nc1OC)-c1cc(=O)c(C(=O)O)cn1[C@H](C(C)C)C2" 8.52

----------
# Tested on: HIV
# protocol: Antiviral selectivity panel, CPE in CEM-SS cells
# Format: cell-based
# condition: Human immunodeficiency virus 1
pEC50: −log10 of the molar value.
measurementName: pEC50

Give the reported pEC50 for this compound. COCCCOc1cc2c(nc1OC)-c1cc(=O)c(C(=O)O)cn1[C@H](C(C)C)C2 [AB-452] < 4.52

----------
Assignment: determine reported pEC50 for the given compounds.
# System: HBV
# protocol: Antiviral assay in HepG2.2.15 cells (HBsAg/HBeAg CLIA, secreted HBV DNA qPCR)
# Assay type: cell-based, hepatitis B virus
# condition: Hepatitis B virus; HepG2.2.15 cells; read-out: HBsAg EC50
Give bare numbers, as −log10 of the molar value.

moleculeSmiles | pEC50
COCCCOc1cc2c(nc1OC)-c1cc(=O)c(C(=O)O)cn1[C@@H](C(C)C)C2 | 5.65

Now look at this entry.
Give the reported pEC50 for this compound. "COCCCOc1cc2c(nc1OC)-c1cc(=O)c(C(=O)O)cn1[C@H](C(C)C)C2" 8.85

----------
# Test system: HBV
# protocol: Antiviral assay in HBV-infected HepG2-NTCP cells
# Type: cell-based
# condition: Hepatitis B virus, read-out: HBsAg EC50
measurementName: EC50 (nM)
Give bare numbers, in nM.

Give the reported EC50 for this compound. "COCCCOc1cc2c(nc1OC)-c1cc(=O)c(C(=O)O)cn1[C@H](C(C)C)C2" 6.8

----------
# protocol: in vitro
# Format: cell-based
# condition: human
measurementName: CC50

Give the reported CC50 for this molecule. "COCCCOc1cc2c(nc1OC)-c1cc(=O)c(C(=O)O)cn1[C@H](C(C)C)C2" > 30 µM
